# method_description: BET inhibitor-based combinations targeting novel dependencies in MECOM-rearranged (r) AML: AML-191 cell line (AID 2202236; further: nearly all actives have a fitted effect of over 35% in size)
# condition: AML-191 viability, CellTiter-Glo luminescence, 48 h; series mostly up to 46 µM
Inconclusive results are not listed. Activity calls are given as the source filed them. The call rests on the fitted dose curve; in most records, active means well fitted inhibition curve with a large enough effect; inconclusive means small, poorly fitted or top-dose-only effect; inactive means flat fitted curve, though single readings scatter.
Your response should consist of one outcome taken from t for active, f for inactive

Example entries and their recorded answers appear below.
[in] Could you check what this test reported for `CN1CCN(C2CCN(C(=O)Nc3cc(Oc4ccc(NC(=O)C5(C(=O)Nc6ccc(F)cc6)CC5)c(F)c4)ccn3)CC2)CC1` ?
[out] t

[in] Continue with `O=C(Nc1ccccc1-c1cn2c(CN3CCNCC3)csc2n1)c1cnc2ccccc2n1`
[out] t

[in] Continue with C=C1C(=O)OC(CCCCCCCC)C1C(=O)O (stereo unspecified)
[out] f

[in] Continue with `Nc1ccccc1NC(=O)c1ccc(CNC(=O)OCc2cccnc2)cc1`
[out] t

[in] Continue with `O=C(O)CCCc1c[nH]c2ccccc12`
[out] f

[in] Continue with `Nc1nc(Nc2ccc(S(N)(=O)=O)cc2)nn1C(=O)c1c(F)cccc1F`
[out] t

[in] Continue with CCC(C)SSc1ncc[nH]1 (stereo unspecified)
[out] t

[in] Continue with `Cc1c(F)cc(C(=O)NC2CC2)cc1-c1ccc(C(=O)NCC(C)(C)C)cn1`
[out] f

Continuing:
[in] Could you check what this test reported for `O=C1Nc2ccc(I)cc2/C1=C/c1cc(Br)c(O)c(Br)c1` ?
[out] t

[in] Continue with `O=C(Nc1ccc(F)c(C(F)(F)F)c1)Nc1nnc(-c2ccncc2)s1`
[out] f

[in] Continue with `C[C@H]1CN(C[C@H](Cc2ccccc2)C(=O)NCC(=O)O)CC[C@@]1(C)c1cccc(O)c1`
[out] f

[in] Continue with OC(c1cc(C(F)(F)F)nc2c(C(F)(F)F)cccc12)C1CCCCN1 (stereo unspecified)
[out] t

[in] Continue with `COc1nc(-c2ccc3c(c2)OCO3)n(-c2ccc(NC(=O)CSc3ccccc3)cc2)n1`
[out] f

[in] Continue with `COc1cc([C@@H]2c3cc4c(cc3[C@H](O)[C@H]3COC(=O)[C@@H]23)OCO4)cc(OC)c1OC`
[out] t

[in] Continue with `NC(=NCc1ccccc1)NC(=O)c1nc(Cl)c(N)nc1N`
[out] t

* * *

# tgt: Cellular tumor antigen p53 (Homo sapiens)
# method_description: Primary qHTS for small molecule compounds that upregulate eGFP-tagged delta133p53alpha (in N-terminal) cells. (AID 2060322);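 further: cells pre-induced with doxycycline then dosed without doxycycline; 0% = DMSO vehicle and 100% = reference activator; nearly all actives have a fitted effect of over 75% in size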
# condition: NCI-H358 eGFP-delta133p53alpha fluorescence, 24 h; hits give high values
Results filed as inconclusive are left out.
Kindly state activation for each of the entries shown.
Numbers only, in %.

Guide cases for activation, answers given:
[in] Could you share which activation value was measured for `COc1cc2c(c(OC)c1CC=C(C)C)C[C@H](c1ccc(O)cc1O)CO2` ?
[out] 12.5

[in] Continue with `CC(=O)SC[C@@H](C)C(=O)N1CCC[C@H]1C(=O)N[C@@H](Cc1ccccc1)C(=O)O`
[out] -26.8

[in] Continue with `O=c1[nH]c(=O)n([C@H]2C[C@H](O)[C@@H](CO)O2)cc1I`
[out] -6.69

For each of the molecules below, note its activation.
1. O=C(O)c1cn(C2CC2)c2cc(Cl)c(F)cc2c1=O
2. Oc1cccc(-c2nc(N3CCOCC3)c3oc4ncccc4c3n2)c1

[out]
1: 11.9; 2: 27.8

* * *

# tgt: Retinaldehyde dehydrogenase 3 (Homo sapiens) (UniProt P47895)
# method_description: qHTS for Inhibitors of the Aldehyde Dehydrogenase Family (ALDH1A3) Primary screen (AID 2061315);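 further: plate controls were DMSO vehicle for no effect and reference inhibitor for full effect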
# condition: ALDH inhibition qHTS; series mostly up to 56 µM
Inconclusive results are not listed. Activity calls are given as the source filed them. Calls come from the whole dose curve; as a rule, active = well fitted inhibition curve with a large enough effect; inconclusive = small, poorly fitted or top-dose-only effect; inactive = no such curve, though single readings can be large or run the other way.
parameter: activity change, negative = inhibition

Guide cases for activity change, negative = inhibition, answers given:
[in] Could you share which activity change, negative = inhibition value was measured for COC(CCc1ccc(O)cc1)CC(=O)CCc1ccc(O)cc1 (configuration not stated) ?
[out] inactive

[in] Continue with `Clc1ccc(Nc2nnc(Cc3ccncc3)c3ccccc23)cc1`
[out] inactive

[in] Continue with `NC(=O)C1CCN(c2nc(-c3ccc(F)cc3)cs2)CC1`
[out] inactive

[in] Continue with COc1ccc(C2Sc3ccccc3N(CCN(C)C)C(=O)C2OC(C)=O)cc1 (configuration not stated)
[out] inactive

[in] Continue with C=C1CC(=O)C2OC2(C)CC2OC(=O)C(=C)C2C(O)C1OC(=O)/C(C)=C\C (configuration not stated)
[out] inactive

For each of the compounds below, note its activity change, negative = inhibition.
1. CC(=O)O[C@H]1[C@H](C)[C@@H](O)[C@H]2[C@@H]1C=C(C(=O)O)[C@H]1C[C@@H]3[C@H]([C@H]21)[C@H]1C(=O)O[C@@H]2CC[C@@]3(C)O[C@]1(O)[C@@H]2C
2. COc1cc(O)cc(/C=C/c2cccc(O)c2)c1
3. COc1ccccc1CC(C(=O)O)N(C)C(=O)c1ccccc1 (configuration not stated)

[out]
1. inactive
2. inactive
3. inactive

For each of the compounds below, note its activity change, negative = inhibition.
1. C/C=C(/C)C(=O)O[C@H]1[C@H](OC(=O)/C(C)=C\C)[C@@]23C(CC1(C)C)[C@]1(CCC4[C@@]5(C)CC[C@H](O[C@@H]6O[C@H](C(=O)O)[C@@H](O)[C@H](O[C@@H]7O[C@H](CO)[C@H](O)[C@H](O)[C@H]7O[C@@H]7O[C@@H](C)[C@H](O)[C@@H](O)[C@H]7O[C@@H]7OC[C@@H](O)[C@H](O)[C@H]7O)[C@H]6O[C@@H]6O[C@H](CO)[C@H](O)[C@H](O)[C@H]6O)C(C)(C)C5CC[C@@]4(C)[C@]1(C)C[C@H]2O)O[C@H]3O (some centres not stated)
2. N=c1nc2n(cc1F)C1OC(CO)C(O)C1O2 (configuration not stated)
3. C[C@]1(OC(=O)/C=C/c2ccccc2)C[C@@H](O)[C@]2(O)C=CO[C@@H](O[C@@H]3O[C@H](CO)[C@@H](O)[C@H](O)[C@H]3O)[C@@H]21
4. O=C1CCc2cc(S(=O)(=O)Nc3cc(F)cc(Cl)c3)c(F)cc2N1
5. C[C@@H]1C(=O)OC[C@H]2C(C(=O)O)=C[C@@H]3CC(C)(C)C[C@]312
6. COC(=O)Nc1ccc(-c2nc(N3CCOCC3)c3cnn(C4CCN(Cc5cccnc5)CC4)c3n2)cc1
7. CN(CC1COCCO1)S(=O)(=O)Nc1ccc2ccc3ncc(-c4cnn(C)c4)cc3c(=O)c2c1 (configuration not stated)
8. O=C1N=C(N2CCOCC2)CN1c1ccc(Cl)cc1

[out]
["-5.71% [at 11.2 µM] (inactive)", "inactive", "inactive", "inactive", "inactive", "inactive", "inactive", "inactive"]

For each of the compounds below, note its activity change, negative = inhibition.
1. COC(=O)/C=C/c1ccc(O[C@@H]2O[C@H](CO)[C@@H](O)[C@H](O)[C@H]2O)cc1
2. O=C(Nc1ccc(F)c(C(F)(F)F)c1)Nc1nnc(-c2ccncc2)s1
3. CC(=O)O[C@H]1[C@H](O)C[C@@]2(C)C(CC[C@]3(C)C2CC=C2C4CC(C)(C)CC[C@]4(C(=O)O)CC[C@]23C)C1(C)C (some centres not stated)
4. CC(C)(C)c1ccc(S(=O)(=O)NCc2ccc(C(=O)Nc3cccnc3)cc2)cc1
5. COc1cc(C(=O)N2CCC(N3CCN(C)CC3)CC2)ccc1Nc1ncc2c(n1)N(C)c1ccccc1C(=O)N2C

[out]
1. inactive
2. inactive
3. inactive
4. inactive
5. inactive

* * *

# tgt: Cellular tumor antigen p53 (Homo sapiens) (UniProt P04637)
# Sequence (P04637 whole entry, looked up): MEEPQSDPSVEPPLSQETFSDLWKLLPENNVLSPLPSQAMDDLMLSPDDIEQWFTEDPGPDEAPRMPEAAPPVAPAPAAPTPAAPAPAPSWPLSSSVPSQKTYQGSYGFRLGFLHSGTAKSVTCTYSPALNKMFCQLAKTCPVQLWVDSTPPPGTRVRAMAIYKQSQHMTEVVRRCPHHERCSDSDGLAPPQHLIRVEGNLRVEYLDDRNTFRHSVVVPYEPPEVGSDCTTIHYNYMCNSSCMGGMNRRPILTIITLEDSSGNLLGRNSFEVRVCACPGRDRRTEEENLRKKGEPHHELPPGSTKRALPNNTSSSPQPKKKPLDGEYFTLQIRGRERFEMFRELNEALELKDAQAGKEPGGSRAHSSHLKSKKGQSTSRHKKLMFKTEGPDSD
# method_description: Primary qHTS for small molecule compounds that upregulate eGFP-tagged delta133p53alpha (in N-terminal) cells. (AID 2060322);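 further: cells pre-induced with doxycycline then dosed without doxycycline; 0% = DMSO vehicle and 100% = reference activator; nearly all actives have a fitted effect of over 75% in size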
# condition: NCI-H358 eGFP-delta133p53alpha fluorescence, 24 h; hits give high values
Inconclusive results are not listed.
parameter: activation (%)
One number for each entry, in %.

[in] Could you share which activation value was measured for `CC(C)CC[C@@H](O)[C@](C)(O)[C@H]1CC[C@@]2(O)C3=CC(=O)[C@@H]4C[C@@H](O)[C@@H](O)C[C@]4(C)[C@H]3CC[C@]12C` ?
[out] -7

[in] Continue with CCCCS(=N)(=O)CCC(N)C(=O)O (stereo not given)
[out] -49.8

[in] Continue with `O=C(O)[C@@H](O)[C@H](O)[C@H](O)[C@@H](O)C(=O)O`
[out] -1.67

[in] Continue with CC(=O)NCC1CN(c2ccc(-c3ccc(CNCc4cn[nH]n4)cc3)c(F)c2)C(=O)O1 (stereo not given)
[out] -4.77

[in] Continue with `CC(=O)NCc1cccc(OC[C@@H](O)CNCCc2ccc(NS(=O)(=O)c3ccccc3)cc2)c1`
[out] 8.93

[in] Continue with `CC12CCC(CC1)C(C)(C)O2`
[out] -0.565

[in] Continue with COc1cc(C)c(C(=O)Oc2cc(C)c(C(=O)Oc3cc(C)c(C(=O)NC(C)C(=O)O)c(O)c3)c(O[C@@H]3O[C@H](CO)[C@@H](O)[C@H](O)[C@H]3OC(C)=O)c2)c(OC)c1 (stereo not given in full)
[out] -7.63

[in] Continue with CC1=C2C=C(CO)C(CO)CCC2(C)CCC1=O (stereo not given)
[out] 3.82

[in] Continue with `N[C@@H](Cc1cc(I)c(Oc2ccc(O)c(I)c2)c(I)c1)C(=O)O`
[out] -7.64

The record that follows has no activation shown yet.
[in] Could you share which activation value was measured for `N#C[C@@H]1CCCN1C(=O)CNC12CC3CC(CC(O)(C3)C1)C2` ?
[out] 15
